- Tested on: HOP-92 NSCLC
- ASSAY: NCI tumour cell line growth inhibition, 48 h
MEASUREMENT NAME: TGI (µM)
Kindly provide the numeric value in µM only, without the unit symbol.

Worked examples, 2 compounds total:
# COMPOUND, TGI / µM
measured = [
    ("C/C=C/[C@@H]1OC(=O)C2=C[C@@H](O)[C@@H](/C=C/C)O[C@H]21", 9.12),
    ("O=C1/C(=C/c2c(Cl)[nH]c3ccccc23)c2ccccc2N1c1ccccc1", 31.8),
]

Item: CCN1C(=O)N(CC)C2C1NN=c1s/c(=C\c3cc4ccccc4[nH]3)c(=O)n12 (stereo unspecified) Test system: HOP-92 NSCLC Read-out: TGI Value: ?
6.28

Now consider O=C1/C(=C/c2ccccc2)CCC/C1=C\c1ccc(O)c(CN2CCCCC2)c1 .
15.4

Same thing, different compound: CCCCOCCOC1=CC(=O)c2c(O)ccc(O)c2C1=O
4.44

Check COc1ccc2c(c1)C(C)Cc1c(Cl)nc(C)nc1N2C (stereo unspecified) too.
29.5

* * *

- Test system: SNB-19 CNS
- ASSAY: NCI tumour cell line growth inhibition, 48 h
MEASUREMENT NAME: GI50

# COMPOUND, ASSAY TARGET, GI50
measured = [
    ("C/C=C/[C@@H]1OC(=O)C2=C[C@@H](O)[C@@H](/C=C/C)O[C@H]21", "SNB-19 CNS", "16.6 µM"),
]

# evaluate next
# query: GI50 of entry Cc1ccc2c(c1)C(=O)c1c-2n(CCCBr)c(=O)c2cc([N+](=O)[O-])ccc12
47.9 µM

* * *

- Test system: CAKI-1 renal
- ASSAY: NCI tumour cell line growth inhibition, 48 h; in the data active = GI50 below about 0.43 µM; inactive = the rest
One label from this list, please: active, inactive

Answered cases to consult:
# MOLECULE, DISCRETE LABEL
records = [
    ("CC(=O)O[C@H]1CC[C@@]2(C)[C@@H](CC[C@@H]3[C@@H]2CC[C@]2(C)C=C(C=O)C[C@@H]32)C1", "inactive"),
    ("COc1cc(C2CC(c3ccc(N(C)C)cc3)=NN2C(C)=O)cc(OC)c1OC (centres undefined)", "inactive"),
    ("CC1(C)CC[C@]2(C(=O)N3CCOCC3)CC[C@]3(C)C(=CC[C@@H]4[C@@]5(C)C/C(=C/c6ccncc6)C(=O)C(C)(C)[C@@H]5CC[C@]43C)[C@@H]2C1", "inactive"),
    ("O=C(COc1cccc(/C=C2\\COc3ccc(Cl)cc3C2=O)c1)c1ccc(Cl)cc1", "inactive"),
    ("Nc1nc(N)c(N=O)c(OCC2CCCCC2)n1", "inactive"),
]

Would you mind telling me which call this test gave Cc1cn2c(/C=N/Nc3ccccn3)c(-c3ccc(Cl)c([N+](=O)[O-])c3)nc2s1 ?
inactive

Lookup Nc1n[nH]c2ccc([C@@H]3Nc4ccc5[nH]ncc5c4[C@H]4C5C=CC(C5)[C@@H]34)cc12 (some centres undefined)
active

Next molecule up: COc1ccc(-c2nn(-c3cccc(Cl)c3)cc2-c2cc(-c3ccccc3)nc(N)n2)cc1
inactive

Again, but for CCCOc1nc(SCCC)nc2c1cnn2-c1ccccc1
inactive

Consider next the molecule O=C(c1cccnc1)c1cc(-c2ccccn2)c(=O)n2ccccc12 in the same way.
inactive

For CCN(CC)c1ccc(C(=N)c2ccc(N(C)C)cc2)cc1 then?
active

Further, for Cn1ccnc1C(=O)/C=C/c1ccc(CC(=O)Nc2ccc(C(F)(F)F)cc2)cc1 ?
inactive

Then what about the molecule O=C(CN1CCN(c2ccccc2)CC1)N1CCN(c2nnc(-c3ccc(Cl)cc3)c(-c3ccc(Cl)cc3)n2)CC1 ?
inactive

Again, but for OCC1OC(n2cnc3c(=S)nc[nH]c32)C(O)C1O (centres undefined)
inactive
